Can you tell me INHIBITION for the items I'm about to list?
Tested on: Plasmodium falciparum
Assay: Screen against P. falciparum Asexual Blood Stage (ABS), at 5uM
Assay type: functional, Dd2
Details: tested at 5 uM
Among all 65,000 compounds or so, about 2,100 (3.2%) showed an effect of 50% or more. The median lay at about -52%. The sample as a whole holds a higher share of strong results than the screen did.
Reply numerically in %, unit not repeated.

Measured INHIBITION, CN1CCc2c(C#N)c(NCCc3ccccc3)n3cnnc3c2C1 : 70.9

Measured INHIBITION, Nc1nc2c(c(N3CCCC(c4nnc5ccccn45)C3)n1)CCNC2 (centres undefined) : 84.8

Measured INHIBITION, COc1ccc(OC)c(CNCc2ccnc(N3CCCCC3)c2)c1 : 75.8

Measured INHIBITION, COc1ccc(NC(=O)Cn2nc(C)c(C(C)=O)c2C)cc1 : 89.7

Measured INHIBITION, CCOCCN1C[C@H](C(=O)Nc2cccnc2)[C@@H]2CCO[C@@H]2C1 : -9.46

Measured INHIBITION, Cc1cc(C)c(CNc2cnc3ccccc3n2)c(=O)[nH]1 : 12.9

Measured INHIBITION, O=C(NCc1ccncc1)C1=NOC2(CCCNC2)C1 (centres undefined) : -6.12

Measured INHIBITION, CCOCCCn1c(NC(=O)c2cc(C)on2)nc2ccccc21 : 71.5

Measured INHIBITION, O=C1CSC(c2ccncc2)c2c[nH]nc2N1 (centres undefined) : -101

Measured INHIBITION, COc1ccc(CNCc2ccnc(N3CCCC3)c2)c(OC)c1 : 73.6

Measured INHIBITION, CC(C)CCNc1c(C#N)c2c(c3nncn13)CN(C)CC2 : -35.1

Measured INHIBITION, c1cc(CNCc2ccnc(N3CCCC3)c2)c2c(c1)OCCCO2 : -20.5

Measured INHIBITION, O=C(C1CC1)N1CCc2c(ncnc2N2CCN3CCCC3C2)C1 (centres undefined) : -21.1

Measured INHIBITION, CCC(O)CN1CCN(C(=O)Cc2ccc(OC)cc2OC)CC1 (centres undefined) : -2.14

Measured INHIBITION, O=S(=O)(NC1CCC12CCN(CC1CC1)CC2)c1ccccc1 (centres undefined) : 71.2

Measured INHIBITION, COc1cc(N2CCN(CC3CC3)c3nc(C)ccc3C2)ncn1 : -65.6

Measured INHIBITION, FC(F)CNc1cnc(C2CCNCC2)cn1 : -139

Measured INHIBITION, CN(CCCOc1ccccc1)C(=O)c1csc(-c2nnc[nH]2)n1 : 77.1

Measured INHIBITION, O=C(COc1ccc(F)cc1)N1CCCSCC1CN1CCOCC1 (centres undefined) : -80.2

Measured INHIBITION, CC[C@@H]1N(Cc2ccccn2)CCC[C@]12CCC(=O)N2CCOC : -116

Measured INHIBITION, O=C(c1cnc(-c2ccccc2)s1)N1CCC2(CC1)OCCO2 : -174

Measured INHIBITION, Cc1ccccc1CC(=O)N1CCN(C2CCOC2=O)CC1 (centres undefined) : -126

Measured INHIBITION, Cc1cccc(CN2CC[C@H]3[C@H]2CCN3C(=O)c2cnn(C)c2)n1 : -5.92

Measured INHIBITION, CN1CCc2c(C#N)c(NCCCO)n3cnnc3c2C1 : -82.4
